This collection of values is drawn from patent US8921307B2.

# half-life annotations
# measurement.description: Surrogate Activity-Based Plasma Stability Assay
# Assay type: in vitro ADME
# test.parameters: rat, Surrogate activity-based Plasma stability t½
Where a SMILES comes first, the peptide text is derived from it. [ ]: non-standard residue; d: D form. Cha = N[C@@H](CC1CCCCC1)C(=O)O; pGlu = O=C1CC[C@@H](C(=O)O)N1; dNle = CCCC[C@@H](N)C(=O)O; dNva = CCC[C@@H](N)C(=O)O
Provide only the numeric value, understood in h.

CCCC[C@@H](NC(=O)[C@@H]1CCCN1C(=O)CNC(=O)[C@H](CCCCN)NC(=O)[C@H](Cc1c[nH]cn1)NC(=O)[C@@H](C)NC(=O)[C@H](CC(C)C)NC(=O)[C@H](CCCNC(=N)N)NC(=O)[C@@H]1CCCN1C(=O)[C@@H](N)CCCNC(=N)N)C(=O)N[C@H](Cc1ccccc1)C(=O)O [Example 50, H-R-P-R-L-a-H-K-G-P-nle-f-OH] (H-RPRL[dA]HKGP[dNle][dF]-OH)	0.183
CCCC[C@@H](NC(=O)[C@@H]1CCCN1C(=O)CNC(=O)[C@H](CCCCN)NC(=O)[C@@H](C)NC(=O)[C@@H](C)NC(=O)[C@H](CC(C)C)NC(=O)[C@H](CCCNC(=N)N)NC(=O)[C@@H]1CCCN1C(=O)[C@H](CCCNC(=N)N)NC(=O)[C@@H]1CCC(=O)N1)C(=O)N[C@H](C)C(=O)N[C@H](Cc1ccccc1)C(=O)O [Example 48, pE-R-P-R-L-a-a-K-G-P-nle-a-f-OH] ([pGlu]RPRL[dA][dA]KGP[dNle][dA][dF]-OH)	4.13
CCCC[C@@H](NC(=O)[C@@H]1CCCN1C(=O)CNC(=O)[C@H](CCC(N)=O)NC(=O)[C@H](Cc1c[nH]cn1)NC(=O)[C@@H](C)NC(=O)[C@H](CC(C)C)NC(=O)[C@H](CCCNC(=N)N)NC(=O)[C@@H]1CCCN1C(=O)[C@H](CCCNC(=N)N)NC(=O)[C@@H]1CCC(=O)N1)C(=O)N[C@H](C)C(=O)N[C@H](Cc1ccccc1)C(=O)O [Example 59, pE-R-P-R-L-a-H-Q-G-P-nle-a-f-OH] ([pGlu]RPRL[dA]HQGP[dNle][dA][dF]-OH)	14.2
CCCC[C@@H](NC(=O)[C@@H]1CCCN1C(=O)CNC(=O)[C@H](CCCCN)NC(=O)[C@H](Cc1c[nH]cn1)NC(=O)[C@@H](C)NC(=O)[C@H](CC(C)C)NC(=O)[C@H](CCCNC(=N)N)NC(=O)[C@@H]1CCCN1C(=O)[C@H](CCCNC(=N)N)NC(=O)[C@@H]1CCC(=O)N1)C(=O)N[C@H](CC(C)C)C(=O)N[C@H](Cc1ccccc1)C(=O)O [Example 14, pE-R-P-R-L-a-H-K-G-P-nle-(D-Leu)-f-OH] ([pGlu]RPRL[dA]HKGP[dNle][dL][dF]-OH)	3.08

Here's the next entry for you.
In: Using the record for CCCC[C@@H](NC(=O)[C@@H]1CCCN1C(=O)CNC(=O)[C@H](CCCCN)NC(=O)[C@H](Cc1c[nH]cn1)NC(=O)[C@@H](CCC)NC(=O)[C@H](CC1CCCCC1)NC(=O)[C@H](CCCNC(=N)N)NC(=O)[C@@H]1CCCN1C(=O)[C@H](CCCNC(=N)N)NC(=O)[C@@H]1CCC(=O)N1)C(=O)N[C@H](C)C(=O)N[C@H](Cc1ccccc1)C(=O)O [Example 63, pE-R-P-R-Cha-nva-H-K-G-P-nle-a-f-OH] ([pGlu]RPR[Cha][dNva]HKGP[dNle][dA][dF]-OH) , report its half-life.
Out: 3.75
